test system: HOP-62 NSCLC; experiment: NCI-60 one-dose screen, 48 h; details: 10 µM unless noted
About 83,000 compounds went through this panel and 20% of them were active in at least one assay; those are over-represented in the sample as a whole. The source made the active and inactive calls. The calls were made as follows: active = growth percent below 10; inactive = the rest.
Assign a class; possible classes are true (1) (active), false (0) (inactive)

### Prompt Record lookup: outcome of this test for "CN1CCN(c2nc(NCCCCNc3ccnc4cc(Cl)ccc34)c3ccccc3n2)CC1" ?
### Response false (0)

### Prompt Record lookup: outcome of this test for CC1CCNC(C)C1 (configuration not stated) ?
### Response false (0)

### Prompt Record lookup: outcome of this test for C=C(C)C1CC(O)C2(C)CCCC3C2C1CC(C)C3(C)CC/C(C)=C/C(O)C1CCC(=O)c2c(OC)cc(OC)cc21 (configuration not stated) ?
### Response false (0)

### Prompt Record lookup: outcome of this test for c1csc(C2=NN3C(C2)c2ccccc2OC3c2ccncc2)c1 (configuration not stated) ?
### Response false (0)

### Prompt Record lookup: outcome of this test for "COc1cccc(-c2nc(SCC(=O)Nc3ccc(C(=O)/C=C/c4ccc(OC)c(OC)c4)cc3)[nH]c(=O)c2C#N)c1" ?
### Response false (0)

### Prompt Record lookup: outcome of this test for "C=C1c2nc3ccccc3n2C=C(c2ccc(OC)cc2)N1Cc1ccccc1" ?
### Response false (0)

### Prompt Record lookup: outcome of this test for COc1cc(C)c(C2C(C#N)=C(N)Oc3n[nH]c(-c4cccs4)c32)cc1C(C)C (configuration not stated) ?
### Response false (0)

### Prompt Record lookup: outcome of this test for Nc1n[nH]c2cc(F)c([C@@H]3Nc4ccc5[nH]ncc5c4[C@H]4C5CCC(C5)[C@@H]34)cc12 (some centres not stated) ?
### Response false (0)

### Prompt Record lookup: outcome of this test for "Cc1cc(N[C@@H]2CCC[C@H](Nc3ccnc4cc(Cl)ccc34)C2)nc(N2CCCCCC2)n1" ?
### Response true (1)

### Prompt Record lookup: outcome of this test for "COc1cccc(-c2nc3sccn3c2-c2ccnc(NCCCNS(=O)(=O)c3cccc(F)c3)c2)c1" ?
### Response false (0)

### Prompt Record lookup: outcome of this test for "COc1ccc(Nc2c3c4c(cccc4[nH]c2=O)C(=O)c2ccccc2-3)cc1" ?
### Response false (0)

### Prompt Record lookup: outcome of this test for "CNC(=O)c1cc(Oc2ccc(NC(=O)Nc3ccc(Cl)c(OC(F)(F)F)c3)c(F)c2)ccn1" ?
### Response false (0)

### Prompt Record lookup: outcome of this test for "O=C1/C(=C/c2ccc3c(c2)OCO3)SC(=S)N1CCc1ccc(O)cc1" ?
### Response false (0)

### Prompt Record lookup: outcome of this test for "Cn1cc(-c2nonc2-c2cn(C)c3ccc(F)cc23)c2ccccc21" ?
### Response false (0)

### Prompt Record lookup: outcome of this test for "CC(C)(C)c1cc(/C=N\NC(=O)/C=C/C=C/c2ccc3c(c2)OCO3)c(O)c(C(C)(C)C)c1" ?
### Response false (0)

### Prompt Record lookup: outcome of this test for "O=c1nc2oc3ccc4ccccc4c3cc-2s1" ?
### Response false (0)

### Prompt Record lookup: outcome of this test for "Cc1ccc(NC(=O)/C=C/c2ccccc2)c(C(N)=O)c1" ?
### Response false (0)

### Prompt Record lookup: outcome of this test for "COc1ccc(Nc2cc(C)nc(N3CCN(c4ccnc5cc(Cl)ccc45)CC3)n2)cc1" ?
### Response false (0)

### Prompt Record lookup: outcome of this test for "CCOC(=O)c1cc(C(=O)c2ccc(O)c(O)c2)n2ccc(-c3ccn4c(C(=O)c5ccc(O)c(O)c5)cc(C(=O)OCC)c4c3)cc12" ?
### Response false (0)

### Prompt Record lookup: outcome of this test for "C#CCOc1ccc2ncnc(Nc3cccc(CNC(=O)C=C)c3)c2c1" ?
### Response false (0)

### Prompt Record lookup: outcome of this test for "O=C1NC(=S)N[C@H]1CC(=O)n1cnc2ccccc21" ?
### Response false (0)

### Prompt Record lookup: outcome of this test for "Cn1c(=O)c2c(nc3n(-c4ccc(Cl)cc4Cl)c(Sc4nc(-c5ccccc5)c(C#N)c(=O)[nH]4)cn23)n(C)c1=O" ?
### Response false (0)

### Prompt Record lookup: outcome of this test for "O=S(=O)(Nc1ccc(Cl)c(F)c1)c1ccc(-c2cnc(C3CC3)o2)cc1" ?
### Response false (0)

### Prompt Record lookup: outcome of this test for "COc1cccc(/C=C2\Oc3cc(OCCN4CCCC4)ccc3C2=O)c1" ?
### Response false (0)

### Prompt Record lookup: outcome of this test for "N#C/C(=C\c1ccc(-c2cc(C(F)(F)F)ccc2Cl)o1)c1nc(-c2ccco2)cs1" ?
### Response false (0)

### Prompt Record lookup: outcome of this test for "C=C1c2nc3ccccc3n2C=C(c2ccc(Cl)cc2)N1Cc1ccc(OC)cc1" ?
### Response false (0)

### Prompt Record lookup: outcome of this test for "COc1ccc(-n2nc(C)c3c(Nc4ccc(NC(=O)Nc5cccc(C(F)(F)F)c5)cc4)ncnc32)cc1" ?
### Response true (1)

### Prompt Record lookup: outcome of this test for COc1cc2c(cc1OC)C(Sc1ccc(SC)cc1)c1c(nc(N)c(C#N)c1N)O2 (configuration not stated) ?
### Response true (1)

### Prompt Record lookup: outcome of this test for "Cc1cc(C)nc(SC2=C(Nc3cccc(Cl)c3)C(=O)N(Cc3ccccc3)C2=O)n1" ?
### Response false (0)

### Prompt Record lookup: outcome of this test for Cc1ccc(C2Oc3ccccc3C3CC(c4cccs4)=NN32)cc1 (configuration not stated) ?
### Response false (0)

### Prompt Record lookup: outcome of this test for "CC1=CC(=NN=c2cc(C)n([O-])c(C)c2)C=C(C)[N+]1=O" ?
### Response false (0)

### Prompt Record lookup: outcome of this test for Cc1ccc2oc(=O)cc(C3c4ccc([nH]4)C(c4cc(=O)oc5ccc(C)cc45)c4ccc([nH]4)C(c4cc(=O)oc5ccc(C)cc45)c4ccc([nH]4)C(c4cc(=O)oc5ccc(C)cc45)c4ccc3[nH]4)c2c1 (configuration not stated) ?
### Response true (1)

### Prompt Record lookup: outcome of this test for "CN(Cc1cc(Cl)cc(Cl)c1O)Cc1cc(Cl)cc(Cl)c1O" ?
### Response false (0)

### Prompt Record lookup: outcome of this test for CC(C)CC1C(=O)N2CCC[C@H]2C2(O)O[C@](NC(=O)C3C=C4c5cccc6[nH]c(Br)c(c56)C[C@H]4N(C)C3)(C(C)C)C(=O)N12 (some centres not stated) ?
### Response false (0)

### Prompt Record lookup: outcome of this test for "CCOc1ccc(C(C)=O)cc1NC(=O)c1cccc(-c2nnn(CC)n2)c1" ?
### Response false (0)

### Prompt Record lookup: outcome of this test for Cn1nc(N)c2cc([C@@H]3Nc4ccc5[nH]ncc5c4[C@H]4C5CCC(C5)[C@@H]34)ccc21 (some centres not stated) ?
### Response false (0)

### Prompt Record lookup: outcome of this test for CN1C(=O)C2(SCC(C(=O)NCc3ccccc3)N2C(=O)C2CCCCC2)c2ccccc21 (configuration not stated) ?
### Response false (0)
